The reported measurements were obtained from paper PMC5491917.

Catalogue of pIC50 values
System: HCT116 cells
Experiment: MTT cytotoxicity assay on HCT116
Type: cell-based
Settings: Homo sapiens, HCT-116, 48 h exposure, read-out: IC50 Value HCT116
For clarity, pIC50 is expressed as the negative log10 of concentration in mol/L.

O=C(O)c1ccc(C=CC(=O)c2ccccc2O)cc1 | 3.93

Continue with the next molecule.
Q. Which pIC50 value is on record for O=C(/C=C/c1ccc(O)cc1)c1ccccc1O ?
A. 4.09

====

System: histone deacetylase (HDAC) enzyme
Assay: Whole cell HDAC enzyme assay
Assay type: cell-based, human
Settings: HCT116 cells, 18 h treatment, mean ± SEM, triplicate; read-out: IC50 whole cell HDAC enzyme inhibition
Quantity measured: pIC50
For clarity, pIC50 is expressed as the negative log10 of concentration in mol/L.

Solved entries:
CN(C)c1ccc(/C=C/C(=O)c2ccccc2O)cc1 | 3.33
O=C(O)c1ccc(C=CC(=O)c2ccccc2O)cc1 | 3.03
O=C(O)c1ccc(C=CC(=O)c2c(O)cccc2O)cc1 | 3.08

Q. Reported pIC50 for Cc1ccc(/C=C/C(=O)c2ccccc2O)cc1 [C1, 1-(2-Hydroxy-phenyl)-3-p-tolyl-propenone] : what is it?
A. 3.98
